These measurements were taken from patent US20240116985A1.

target: full-length beta-Catenin (Uniprot ID P35222) (Homo sapiens (Human)) (UniProt P35222); experiment: fluorescence polarization competition; full-length beta-catenin, competitor probe 5FAM-TCF4(10-53)
Sequence (P35222 2-781 limits assumed): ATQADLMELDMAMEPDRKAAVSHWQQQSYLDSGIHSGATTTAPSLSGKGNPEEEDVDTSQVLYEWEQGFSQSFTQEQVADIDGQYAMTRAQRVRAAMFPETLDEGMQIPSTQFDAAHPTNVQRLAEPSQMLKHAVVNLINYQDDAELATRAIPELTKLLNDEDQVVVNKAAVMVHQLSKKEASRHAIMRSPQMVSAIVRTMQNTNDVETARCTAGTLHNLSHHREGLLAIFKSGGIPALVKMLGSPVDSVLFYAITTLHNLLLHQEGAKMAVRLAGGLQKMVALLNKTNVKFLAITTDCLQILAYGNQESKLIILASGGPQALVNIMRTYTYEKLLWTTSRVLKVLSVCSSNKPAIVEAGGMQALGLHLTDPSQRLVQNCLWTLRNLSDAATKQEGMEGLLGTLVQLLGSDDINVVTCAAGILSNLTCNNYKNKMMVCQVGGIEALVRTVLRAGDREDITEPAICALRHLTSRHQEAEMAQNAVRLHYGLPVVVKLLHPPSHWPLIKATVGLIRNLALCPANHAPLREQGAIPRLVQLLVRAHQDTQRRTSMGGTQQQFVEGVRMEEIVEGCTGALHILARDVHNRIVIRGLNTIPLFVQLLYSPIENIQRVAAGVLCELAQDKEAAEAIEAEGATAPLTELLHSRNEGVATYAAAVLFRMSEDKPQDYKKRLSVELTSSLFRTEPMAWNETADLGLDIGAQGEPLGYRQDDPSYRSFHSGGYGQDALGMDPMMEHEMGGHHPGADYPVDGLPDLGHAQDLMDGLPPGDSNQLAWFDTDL
pIC50: −log10 of the molar value. Starred links: 1 amine or outer side, 2 acyl side, 3 side chain; linkers in the order of their positions; H or OH if unused. Positions of bridges follow the written chain, without caps; N, C: chain ends. Non-standard residues stand in square brackets, D forms with d. Primed or numbered codes have the meaning given here. PyrS2″ = (S)-3-amino-1-((pent-4-en-1-yloxy)carbonyl)pyrrolidine-3-carboxylic acid (stapling residue), C=CCCCOC(=O)N1CC[C@@](N[*:1])(C(=O)[*:2])C1; B5(4) = 2,2-bis(4-pentenyl)glycine = 2-amino-2-(pent-4-en-1-yl)hept-6-enoic acid (stitching residue), C=CCCCC(CCCC=C)(N[*:1])C(=O)[*:2]; TfeGA = (S)-2-amino-3-((carboxymethyl)(2,2,2-trifluoroethyl)amino)propanoic acid, O=C([C@H](CN(CC(=O)[*:3])CC(F)(F)F)N[*:1])[*:2]; B5(3) = 2,2-bis(4-pentenyl)glycine (stitching residue), C=CCCCC(CCCC=C)(N[*:1])C(=O)[*:2]; Phe(3-COOH) = N[C@@H](Cc1cccc(C(=O)O)c1)C(=O)O; Phe(2-Cl) = N[C@@H](Cc1ccccc1Cl)C(=O)O; Bta = N[C@@H](Cc1csc2ccccc12)C(=O)O; αAllylPro = C=CC[C@@]1(C(=O)O)CCCN1; tBuAla = CC(C)(C)C[C@H](N)C(=O)O; 3Thi = N[C@@H](Cc1ccsc1)C(=O)O; S8 = C=CCCCCCC[C@](C)(N)C(=O)O; hSer = N[C@@H](CCO)C(=O)O
Entry flag: TRUE if pIC50 reaches 7; FALSE if it does not.

{"BINDER": "Ac-[αAllylPro]D[tBuAla][B5(3)]D[TfeGA]AAFS[S8][Phe(2-Cl)][Bta]Q-NH2 (staple 1-4, 4-11) [I-995]", "QUALITATIVE LABEL": "TRUE"}
{"BINDER": "Ac-[αAllylPro]D[tBuAla][B5(4)]D[Phe(3-COOH)]AAFT[PyrS2″][3Thi][Bta]Q-NH2 (staple 1-4, 4-11; also: later eluting HPLC staple isomer) [I-981]", "QUALITATIVE LABEL": "FALSE"}
{"BINDER": "Ac-[αAllylPro]D[tBuAla][B5(3)]D[Phe(3-COOH)]AAFF[PyrS2″][3Thi][Bta]S-NH2 (staple 1-4, 4-11; also: earlier eluting HPLC isomer) [I-982]", "QUALITATIVE LABEL": "FALSE"}
{"BINDER": "Ac-[αAllylPro]D[tBuAla][B5(3)]D[TfeGA]AAF[hSer][S8][Phe(2-Cl)][Bta]Q-NH2 (staple 1-4, 4-11) [I-996]", "QUALITATIVE LABEL": "TRUE"}
